The entries below come with measured EC50 values attached.
TEST_TARGET: T1, human SIRPγ on human CD3+ T-cells (human, UniProt Q9P1W8 29-387)
T1 construct: whole, on cells
T1 sequence (Q9P1W8 29-387): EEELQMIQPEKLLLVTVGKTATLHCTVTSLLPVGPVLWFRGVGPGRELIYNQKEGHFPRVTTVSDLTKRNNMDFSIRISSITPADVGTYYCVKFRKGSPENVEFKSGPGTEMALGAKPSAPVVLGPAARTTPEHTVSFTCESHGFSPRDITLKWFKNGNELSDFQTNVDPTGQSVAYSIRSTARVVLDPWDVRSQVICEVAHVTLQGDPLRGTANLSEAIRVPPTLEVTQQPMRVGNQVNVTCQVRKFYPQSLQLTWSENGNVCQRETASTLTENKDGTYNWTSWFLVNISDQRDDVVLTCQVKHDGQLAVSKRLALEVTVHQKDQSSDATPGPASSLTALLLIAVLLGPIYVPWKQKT
TEST_DESCRIPTION: flow cytometry, whole blood, CD3+ T-cells, donor #2
Source text: Flow Cytometry assay, whole blood staining: Heparinized whole blood samples were obtained from healthy donors (Sanquin blood bank Nijmegen, the Netherlands) and were stored overnight at room temperature. […] Samples were collected with FACSVerse (BD Biosciences) and analysed in FlowJo Software (BD Biosciences). […]
PROPERTY_LABEL: EC50 (µg/mL)

* AB115-LALA (AB115 human IgG1-kappa, LALA) (antibody, V domains shown) VH: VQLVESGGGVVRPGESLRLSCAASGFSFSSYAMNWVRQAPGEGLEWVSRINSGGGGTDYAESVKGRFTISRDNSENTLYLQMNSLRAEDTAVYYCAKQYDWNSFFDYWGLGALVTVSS VL: ETVLTQSPATLSVSPGERATLSCRASQTVGSKLAWHQQKPGQAPRLLIYDATNRATGISDRFSGSGSGTDFTLTISSLQTEDSAVYYCQQYYYWPPYRFGGGTKVEIKR | 0.09
* AB25-LALA (AB25 humanized IgG1-kappa, LALA) (antibody, V domains shown) VH: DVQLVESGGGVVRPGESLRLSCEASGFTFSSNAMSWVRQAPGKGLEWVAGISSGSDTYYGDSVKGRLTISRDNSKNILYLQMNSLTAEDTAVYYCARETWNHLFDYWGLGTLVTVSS VL: SYELTQPPSVSVSPGQTARITCSGGSYSSYYYAWYQQKPGQAPVTLIYSDDKRPSNIPERFSGSSSGTTVTLTISGVQAEDEADYYCGGYDQSSYTNPFGGGTKLTVLR | 0.06
* AB119-LALA (AB119 human IgG1-kappa, LALA) (antibody, V domains shown) VH: VQLLESGGGVVQPGGSLRLSCAASGFSFSNFAMTWVRQAPGEGLEWVSTIGSGDTYYADSVKGRFTISRDNSKNTLYLQMNSLRAEDTAVYYCAKDSTVSWSGDFFDYWGLGTLVTVSS VL: EIVLTQSPATLSVSPGERATFSCRASQNVKNDLAWYQQRPGQAPRLLIYAARIRETGIPERFSGSGSGTEFTLTITSLQSEDFAVYYCQQYYDWPPFTFGGGTKVEIKR | 0.01
* 29AM4-5-LALA (IgG1) (antibody, V domains shown, human IgG1 LALA, kappa; also called 29AM4-5huIgG1LALA) VH: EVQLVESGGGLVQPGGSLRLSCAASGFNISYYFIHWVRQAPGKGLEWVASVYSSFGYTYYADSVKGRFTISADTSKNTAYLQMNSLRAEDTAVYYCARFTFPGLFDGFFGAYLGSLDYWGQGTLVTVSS VL: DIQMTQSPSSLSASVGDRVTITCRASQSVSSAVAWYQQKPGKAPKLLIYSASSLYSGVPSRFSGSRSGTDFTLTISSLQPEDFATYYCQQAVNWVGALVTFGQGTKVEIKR | 0.32
